Tested system: Protein farnesyltransferase (Bos taurus, UniProt P29702+P49355)
Experimental details: Inhibition of transfer of [3H]FPP to biotin K-ras peptide (KKSKTKCVIM) catalyzed by bovine FTase
Assay type: protein-complex assay
pIC50: −log10 of the molar value.
Measure name: pIC50

Reference set, count: 8
Cn1cncc1C(OCc1ccc(C#N)cc1-c1ccc(F)c(Cl)c1)c1ccc(C#N)nc1 (centres undefined): 9.00
Cn1cncc1C(OCc1ccc(C#N)c(-c2cccc(Cl)c2)n1)c1ccc(C#N)cc1 (centres undefined): 7.92
Cn1cncc1C(OCc1ccc(C#N)cc1-c1cccc(OC(F)(F)F)c1)c1ccc(C#N)nc1 (centres undefined): 9.40
CN1CCN(c2nc(COC(c3ccc(C#N)cc3)c3cncn3C)ccc2C#N)CC1 (centres undefined): 7.24
Cn1cncc1C(OCc1ccc(C#N)cc1)c1ccc(C#N)c(-c2cccc3cccnc23)c1 (centres undefined): 8.70
Cn1cncc1C(OCc1ccc(C#N)c(-c2ccc3ccccc3c2)n1)c1ccc(C#N)cc1 (centres undefined): 8.09
Cn1cncc1C(OCc1ccc(C#N)nc1-c1cc(F)cc(F)c1)c1ccc(C#N)cc1 (centres undefined): 9.15
Cn1cncc1C(OCc1ccc(C#N)c(-c2ccc(Cl)cc2)n1)c1ccc(C#N)cc1 (centres undefined): 7.60

P: Cn1cncc1C(OCc1ccc(C#N)cn1)c1ccc(C#N)c(-c2cccc3ccccc23)c1 (centres undefined)
Q: Cn1cncc1C(OCc1ccc(C#N)nc1-c1cccc(Cl)c1)c1ccc(C#N)cc1 (centres undefined)
Input line: Between P and Q , whose recorded pIC50 is greater? Answer format: the label of the selected item.
Output line: P

P: Cn1cncc1C(OCc1ccc(C#N)cc1-c1cccc2ccccc12)c1ccc(C#N)nc1 (centres undefined)
Q: Cn1cncc1C(OCc1ccc(C#N)nc1-c1cc(Cl)cc(Cl)c1)c1ccc(C#N)cc1 (centres undefined)
Input line: Between P and Q , whose recorded pIC50 is greater? Answer format: the label of the selected item.
Output line: Q
(Q: 9.35, P: 8.77)

P: COc1cccc(-c2cc(C#N)ccc2COC(c2ccc(C#N)nc2)c2cncn2C)c1 (centres undefined)
Q: Cn1cncc1C(OCc1ccc(C#N)nc1-c1ccc2c(c1)OC(F)(F)O2)c1ccc(C#N)cc1 (centres undefined)
Input line: Looking at P and Q , which one comes out lower in pIC50 terms? Answer format: the label of the selected item.
Output line: P
(P: 9.06, Q: 9.74)

a: Cn1cncc1C(OCc1nc(N2CCC(C(N)=O)CC2)c(C#N)cc1-c1cccc(Cl)c1)c1ccc(C#N)cc1 (centres undefined)
b: Cn1cncc1C(OCc1cnc(C#N)cc1-c1cccc(Cl)c1)c1ccc(C#N)cc1 (centres undefined)
c: Cn1cncc1C(OCc1ccc(C#N)nc1N1CCN(C(=O)OC(C)(C)C)CC1)c1ccc(C#N)cc1 (centres undefined)
d: Cn1cncc1C(OCc1ccc(C#N)nc1-c1ccc2ccccc2c1)c1ccc(C#N)cc1 (centres undefined)
Input line: Highest pIC50 first, then in falling order down to the smallest. Response format: the labels, sorted as the prompt asks.
Output line: d, a, b, c
